# System: Mus musculus
# Assay protocol: Toxicity in CF albino mouse assessed as mild convulsion at 500 mg/kg, po
# Assay type: organism-based
# Parameters: dose 500 mg/kg, route oral
# Cond: in vivo
Measured endpoint: Activity

# Molecule, Endpoint result
measured = [
    ("CN(C)CCN1N=C(c2ccc(F)cc2)CC2=C1CC(C)(C)CC2=O.O.O=C(O)C(=O)O", "Toxic"),
    ("CCN(CC)CCN1N=C(c2ccc(F)cc2)CC2=C1CC(C)(C)CC2=O", "Toxic"),
    ("CCN(CC)CCN1N=C(c2ccc(Br)cc2)CC2=C1CC(C)(C)CC2=O", "Toxic"),
    ("CC1(C)CC(=O)c2cc(-c3ccccc3)nnc2C1", "Toxic"),
    ("CCN(CC)CCN1N=C(c2ccccc2)CC2=C1CC(C)(C)CC2=O.[O-][Cl+3]([O-])([O-])O", "Toxic"),
    ("CCN(CC)CCN1N=C(c2ccccc2)C(C)C2=C1CC(C)(C)CC2=O.[O-][Cl+3]([O-])([O-])O (configuration not stated)", "Toxic"),
    ("CN(C)CCN1N=C(c2ccccc2)CC2=C1CC(C)(C)CC2=O.[O-][Cl+3]([O-])([O-])O", "Toxic"),
]

---

# Test system: Mus musculus
# Assay protocol: Central nervous system depressant activity in CF albino mouse assessed as eye closure rate at 500 mg/kg, po relative to control
# Type: functional
Measured endpoint: Activity (%)

# Compound, Endpoint result
measured = [
    ("CC1(C)CC(=O)C(CC(=O)c2ccccc2)=C(NNc2ccncc2)C1", 25),
    ("CC1(C)CC(=O)C2=C(C1)N(CCN1CCNCC1)N=C(c1ccc(Br)cc1)C2.Cl.O", 50),
    ("CN(C)CCN1N=C(c2ccccc2)CC2=C1CC(C)(C)CC2=O.[O-][Cl+3]([O-])([O-])O", 75),
    ("CCN(CC)CCN1N=C(c2ccc(Br)cc2)CC2=C1CC(C)(C)CC2=O", 50),
    ("CC1(C)CC(=O)C(CC(=O)c2ccccc2)=C(NNC(=N)N)C1", 25),
    ("CCN(CC)CCN1N=C(c2ccccc2)C(C)C2=C1CC(C)(C)CC2=O.[O-][Cl+3]([O-])([O-])O (stereo not given)", 25),
    ("CCN(CC)CCN1N=C(c2ccc(OC)cc2)CC2=C1CC(C)(C)CC2=O.[O-][Cl+3]([O-])([O-])O", 25),
    ("CCOC(=O)NNC1=C(CC(=O)c2ccccc2)C(=O)CC(C)(C)C1", 25),
    ("CC1(C)CC(=O)C(CC(=O)c2ccccc2)=C(NNC(=O)c2ccncc2)C1", 25),
    ("CCN(CC)CCN1N=C(c2ccccc2)CC2=C1CC(C)(C)CC2=O.[O-][Cl+3]([O-])([O-])O", 50),
    ("CC1(C)CC(=O)c2cc(-c3ccccc3)nnc2C1", 25),
    ("CC1(C)CC(=O)C2=C(C1)N(CCO)N=C(c1ccccc1)C2.Cc1ccc(S(=O)(=O)O)cc1", 25),
    ("CN(C)CCN1N=C(c2ccc(Br)cc2)CC2=C1CC(C)(C)CC2=O.[O-][Cl+3]([O-])([O-])O", 75),
    ("CN(C)CCCN1N=C(c2ccccc2)CC2=C1CC(C)(C)CC2=O.O.[O-][Cl+3]([O-])([O-])O", 25),
    ("CCN(CC)CCN1N=C(c2ccc(F)cc2)CC2=C1CC(C)(C)CC2=O", 75),
]
